Kindly supply the reported MRC5 IC50 values for the records listed here.
Biological target: Recombinant human IL-1β (BioLegend 579404) (human, UniProt P01584 117-269)
Assay: cell-based or functional assay
Starred links: 1 amine or outer side, 2 acyl side, 3 side chain; linkers in the order of their positions; H or OH if unused. Non-standard residues stand in square brackets, D forms with d. No end group written: not given here. dProc3CH24Pal = (2R,3S)-3-(4-pyridylmethyl)pyrrolidine-2-carboxylic acid, O=C([C@H]1[C@@H](Cc2ccncc2)CCN1[*:1])[*:2]; dPro(3S-(4-Br-benzyl)) = O=C(O)[C@@H]1NCC[C@@H]1Cc1ccc(Br)cc1; Trp(βS-Me,4-F) = C[C@@H](c1c[nH]c2cccc(F)c12)[C@H](N)C(=O)O; Bip(4'-COOH) = N[C@@H](Cc1ccc(-c2ccc(C(=O)O)cc2)cc1)C(=O)O; dPro(4R-Bzl(4-F)) = O=C(O)[C@H]1C[C@@H](Cc2ccc(F)cc2)CN1; Ala(pyrimidin-5-yl) = N[C@@H](Cc1cncnc1)C(=O)O; Phe(4-COOH) = N[C@@H](Cc1ccc(C(=O)O)cc1)C(=O)O; Pro(cis-4-F) = O=C(O)[C@@H]1C[C@H](F)CN1; d(αMeD) = C[C@@](N)(CC(=O)O)C(=O)O; 4Pal = N[C@@H](Cc1ccncc1)C(=O)O; aThr = C[C@H](O)[C@H](N)C(=O)O; αMeK = C[C@](N)(CCCCN)C(=O)O; Dab = NCC[C@H](N)C(=O)O; Aib = CC(C)(N)C(=O)O
Please answer in the form of a number followed by its unit of measurement.

Value of measured MRC5 IC50 for the entry cyclo([Bip(4'-COOH)][4Pal][Phe(4-COOH)]G[Pro(cis-4-F)][Trp(βS-Me,4-F)][Aib]EW[Aib][Ala(pyrimidin-5-yl)]QKG[dPro(3S-(4-Br-benzyl))]) (ring closure inferred) [SEQ ID NO: 152] : 0.031 nM

Kindly note the recorded MRC5 IC50 for [Bip(4'-COOH)][4Pal][Phe(4-COOH)]G[Pro(cis-4-F)][Trp(βS-Me,4-F)][Aib]SW[d(αMeD)][dL]Q[Dab]G[dProc3CH24Pal] (lactam (positions not given here); also: macrolactam, ring places not given here) [SEQ ID NO: 238] , which is 0.024 nM

For this binder ( cyclo([Bip(4'-COOH)][4Pal][Phe(4-COOH)]G[Pro(cis-4-F)][Trp(βS-Me,4-F)][Aib][aThr]W[αMeK][Ala(pyrimidin-5-yl)]Q[Dab]G[dPro(4R-Bzl(4-F))]) (ring closure inferred; not fully specified (bridges); printed as Bip4CO2H-4Pal-Phe4COOH-G-Proc4F-SbMeW4F-Aib-alT-W-aMeK-PyrimAla-Q-Dab-G-dProc4Bn4F) [SEQ ID NO: 138] ), measured MRC5 IC50 is 0.021 nM
